Assay: Cytotoxicity against human erythrocytes assessed as hemolytic activity after 60 mins
Assay type: cell-based, Erythrocyte
Details: read-out: HD50
metric-name: HC50 at 1 h (µM)
Write it as a number; the unit µM goes unstated.

test-smiles	HC50 at 1 h [µM]
CC(=O)NCCO[C@H]1[C@H](O)[C@H](O)[C@@H](O[C@H]2[C@H](O)[C@@H](O[C@H]3O[C@H](C)[C@@H](O)[C@H](O)[C@@H]3O)[C@H](O[C@H]3CC[C@@]4(C)C(=CC[C@H]5[C@@H]6C[C@@H]7O[C@]8(CC[C@@H](C)CO8)[C@@H](C)[C@@H]7[C@@]6(C)CC[C@@H]54)C3)O[C@@H]2CO)O[C@@H]1C	9.2

Please find the next compound below.
If you can, please state the reported HC50 at 1 h value of C[C@@H]1CC[C@@]2(OC1)O[C@H]1C[C@H]3[C@@H]4CC=C5C[C@@H](O[C@@H]6O[C@H](CO)[C@@H](O[C@H]7O[C@H](C)[C@@H](OCCNC(=O)c8ccc([N+](=O)[O-])cc8)[C@H](O)[C@@H]7O)[C@H](O)[C@H]6O[C@H]6O[C@H](C)[C@@H](O)[C@H](O)[C@@H]6O)CC[C@]5(C)[C@H]4CC[C@]3(C)[C@H]1[C@@H]2C .
4.9

* * *

Experiment: Cytotoxicity against human erythrocytes assessed as hemolytic activity at 30 ug/ml after 60 mins
Type: cell-based, Erythrocyte
Conditions: read-out: Activity
metric-name: hemolysis at 1 h, 30 ug/ml (%)
Kindly provide the numeric value in % only, without the unit symbol.

Can you share its hemolysis at 1 h, 30 ug/ml? I mean this compound: CC(=O)O[C@H]1C[C@@H]2[C@H](CC[C@]3(C)[C@@H]4[C@H](C[C@@H]23)O[C@]2(CC[C@@H](C)CO2)[C@H]4C)[C@@]2(C)C[C@@H](O)[C@H](O[C@@H]3O[C@H](CO)[C@@H](O[C@H]4O[C@H](C)[C@@H](O)[C@H](O)[C@@H]4O)[C@H](O)[C@H]3O[C@H]3O[C@H](C)[C@@H](O)[C@H](O)[C@@H]3O)C[C@H]12
34

* * *

Test: Cytotoxicity against human erythrocytes assessed as hemolytic activity after 60 mins
Format: cell-based, Erythrocyte
Settings: read-out: HD50
Below, each entry is listed with its recorded HC50 at 1 h.
Number only, in µM; omit the unit.

See these solved cases before continuing.
test-smiles	metric-name	quantity-unit	observed-result
C[C@@H]1CC[C@@]2(OC1)O[C@H]1C[C@H]3[C@@H]4CC[C@H]5C[C@@H](O[C@@H]6O[C@H](CO)[C@@H](O[C@H]7O[C@H](C)[C@@H](O)[C@H](O)[C@@H]7O)[C@H](O)[C@H]6O[C@H]6O[C@H](C)[C@@H](O)[C@H](O)[C@@H]6O)CC[C@]5(C)[C@H]4CC[C@]3(C)[C@H]1[C@@H]2C	HC50 at 1 h	µM	3
C[C@@H]1CC[C@@]2(OC1)O[C@H]1C[C@H]3[C@@H]4CC=C5C[C@@H](O[C@@H]6O[C@H](CO)[C@@H](O[C@@H]7O[C@@H](C)[C@H](O)[C@@H](O)[C@H]7O)[C@H](O)[C@H]6O[C@@H]6O[C@@H](C)[C@H](O)[C@@H](O)[C@H]6O)CC[C@]5(C)[C@H]4CC[C@]3(C)[C@H]1[C@@H]2C	HC50 at 1 h	µM	6.8

// lookup HC50 at 1 h for CCCCCC(=O)O[C@H]1[C@H](O)[C@H](O)[C@@H](O[C@H]2[C@H](O)[C@@H](O[C@H]3O[C@H](C)[C@@H](O)[C@H](O)[C@@H]3O)[C@H](O[C@H]3CC[C@@]4(C)C(=CC[C@H]5[C@@H]6C[C@@H]7O[C@]8(CC[C@@H](C)CO8)[C@@H](C)[C@@H]7[C@@]6(C)CC[C@@H]54)C3)O[C@@H]2CO)O[C@@H]1C
2.2

Same question, C[C@@H]1CC[C@@]2(OC1)O[C@H]1C[C@H]3[C@@H]4CC=C5C[C@@H](O[C@@H]6O[C@H](CO)[C@@H](O[C@H]7O[C@H](C)[C@@H](OCCNC(=O)CCCCl)[C@H](O)[C@@H]7O)[C@H](O)[C@H]6O[C@H]6O[C@H](C)[C@@H](O)[C@H](O)[C@@H]6O)CC[C@]5(C)[C@H]4CC[C@]3(C)[C@H]1[C@@H]2C this time
3.8

Repeat for the following molecule: C[C@@H]1CC[C@@]2(OC1)O[C@H]1C[C@H]3[C@@H]4CC=C5C[C@@H](O[C@@H]6O[C@H](CNC(=O)COc7ccc(Cl)cc7)[C@@H](O[C@H]7O[C@H](C)[C@@H](O)[C@H](O)[C@@H]7O)[C@H](O)[C@H]6O[C@H]6O[C@H](C)[C@@H](O)[C@H](O)[C@@H]6O)CC[C@]5(C)[C@H]4CC[C@]3(C)[C@H]1[C@@H]2C
9.4

Also, C[C@@H]1CC[C@@]2(OC1)O[C@H]1C[C@H]3[C@@H]4CC=C5C[C@@H](O[C@@H]6O[C@H](CNC(=O)C(F)(F)F)[C@@H](O[C@H]7O[C@H](C)[C@@H](O)[C@H](O)[C@@H]7O)[C@H](O)[C@H]6O[C@H]6O[C@H](C)[C@@H](O)[C@H](O)[C@@H]6O)CC[C@]5(C)[C@H]4CC[C@]3(C)[C@H]1[C@@H]2C please.
18.5
